- System: human 5-HT3 serotonin receptors (Homo sapiens, UniProt P46098)
- Sequence (P46098 24-478): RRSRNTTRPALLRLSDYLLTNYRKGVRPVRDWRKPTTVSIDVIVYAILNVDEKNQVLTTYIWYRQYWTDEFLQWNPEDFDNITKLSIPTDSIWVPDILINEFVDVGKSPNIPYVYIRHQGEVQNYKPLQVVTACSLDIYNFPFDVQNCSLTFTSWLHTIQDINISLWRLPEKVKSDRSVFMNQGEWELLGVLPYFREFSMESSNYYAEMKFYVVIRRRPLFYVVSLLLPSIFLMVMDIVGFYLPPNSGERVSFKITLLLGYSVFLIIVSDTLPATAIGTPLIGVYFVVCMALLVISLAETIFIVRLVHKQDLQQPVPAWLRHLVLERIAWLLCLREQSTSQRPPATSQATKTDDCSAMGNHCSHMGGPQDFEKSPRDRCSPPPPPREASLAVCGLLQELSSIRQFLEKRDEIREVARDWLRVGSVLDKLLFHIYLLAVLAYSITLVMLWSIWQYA
- Test details: [3H]BRL 43694 competition binding assay (Cerep)
- Test parameters: CHO cell membranes expressing human 5-HT3 receptors, [3H]BRL 43694, 120 min at room temperature; read-out: h-5HT3 Ki
Where a name gives a salt, the structure may show the parent alone.
Measured property: log10(Ki) (log10 of the value in µM)
Recorded Ki (log10, µM)

In [3]: df
Out[3]:
                                   compound                                    system  measurement
0  COc1c(Cl)ccc2c(N[C@@H]3C4CCN(CC4)C3(C)C)noc12 [Compound (R)-5, hydrochloride]  human 5-HT3 serotonin receptors (Homo sapiens, UniProt P46098)        -0.35

Below is a list of compounds. For each, state its recorded log10(Ki).
1. Fc1ccc2c(N[C@@H]3C4CCN(CC4)C34CC4)noc2c1Cl [Compound (R)-23, hydrochloride]
2. CC1(C)[C@H](Nc2noc3c(F)c(Cl)ccc23)C2CCN1CC2 [Compound (R)-2, hydrochloride]
3. Fc1cc2c(N[C@@H]3C4CCN(CC4)C34CC4)noc2cc1Cl [Compound (R)-26, hydrochloride]
4. Cc1ccc2c(N[C@@H]3C4CCN(CC4)C3(C)C)noc2c1 [Compound (R)-6, hydrochloride]

-0.96
0.50
0.45
0.54

I'm hoping you can list log10(Ki) for every compound here, please.
1. CC1(C)C(Nc2noc3cc(Cl)ccc23)C2CCN1CC2 (racemic) [rac-1, hydrochloride]
2. Cc1ccc2c(N[C@@H]3C4CCN(CC4)C3(C)C)noc2c1F [Compound (R)-7, hydrochloride]
3. CC1(C)[C@H](Nc2noc3cc(Cl)ccc23)C2CCN1CC2 [Compound (R)-1]
4. CCOc1c(Cl)ccc2c(N[C@@H]3C4CCN(CC4)C34CC4)noc12 [Compound (R)-27, hydrochloride]
5. Cc1c(Cl)ccc2c(N[C@@H]3C4CCN(CC4)C3(C)C)noc12 [Compound (R)-10, hydrochloride]

0.43
0.32
0.41
0.75
-0.42

Would you mind listing log10(Ki) for each of the following compounds?
1. COc1c(Cl)ccc2c(N[C@@H]3C4CCN(CC4)C34CC4)noc12 [Compound (R)-20, hydrochloride]
2. CC1(C)[C@H](Nc2noc3c(Cl)c(Cl)ccc23)C2CCN1CC2 [Compound (R)-4, hydrochloride]
3. Cc1ccc2c(N[C@@H]3C4CCN(CC4)C34CC4)noc2c1 [Compound (R)-21, hydrochloride]

[-0.70, -0.89, 0.20]

Go through the list and state log10(Ki) for each entry.
1. FC(F)(F)c1c(Cl)ccc2c(N[C@@H]3C4CCN(CC4)C34CC4)noc12 [Compound (R)-29, hydrochloride]
2. Fc1c(Cl)ccc2c(N[C@@H]3C4CCN(CC4)C34CC4)noc12 [Compound (R)-17, hydrochloride]

1: 0.63; 2: -0.04

====

- System: human 5-HT3 serotonin receptors (Homo sapiens)
- Test details: [3H]BRL 43694 competition binding assay (Cerep)
Counter-ions that a name gives are not always drawn.
Measured property: Ki
Answer by giving the amount and then stating its unit.

Previously resolved entries follow.
In [3]: df
Out[3]:
                                   compound  measurement
0  Clc1ccc2c(N[C@@H]3C4CCN(CC4)C34CC4)noc2c1Cl [(R)-19, hydrochloride]       100 nM
1  Cc1ccc2c(N[C@@H]3C4CCN(CC4)C34CC4)noc2c1Cl [Compound (R)-28, hydrochloride]        66 nM

Next:
Request the reported Ki associated with Clc1ccc2c(NC3C4CCN(CC4)C34CC4)noc2c1 (racemic) [rac-16, hydrochloride]
1800 nM

====

- System: UniProt:P46098
- Test details: [3H]BRL 43694 competition binding assay (Cerep)
- Test parameters: CHO cell membranes expressing human 5-HT3 receptors, [3H]BRL 43694, 120 min at room temperature; read-out: h-5HT3 Ki
Where a name gives a salt, the structure may show the parent alone.
Please respond with reported Ki for every item in the list.

For every item in the list below, what is its measured Ki?
1. Cc1cc2onc(N[C@@H]3C4CCN(CC4)C34CC4)c2cc1F [Compound (R)-24, hydrochloride]
2. CC1(C)[C@H](Nc2noc3c(C(F)(F)F)c(Cl)ccc23)C2CCN1CC2 [Compound (R)-14, hydrochloride]
3. COc1ccc2c(N[C@@H]3C4CCN(CC4)C3(C)C)noc2c1 [Compound (R)-3, hydrochloride]

1: 3.1 µM; 2: > 10 µM; 3: > 10 µM

====

- System: human 5-HT3 serotonin receptors (Homo sapiens)
- Sequence (P46098 24-478): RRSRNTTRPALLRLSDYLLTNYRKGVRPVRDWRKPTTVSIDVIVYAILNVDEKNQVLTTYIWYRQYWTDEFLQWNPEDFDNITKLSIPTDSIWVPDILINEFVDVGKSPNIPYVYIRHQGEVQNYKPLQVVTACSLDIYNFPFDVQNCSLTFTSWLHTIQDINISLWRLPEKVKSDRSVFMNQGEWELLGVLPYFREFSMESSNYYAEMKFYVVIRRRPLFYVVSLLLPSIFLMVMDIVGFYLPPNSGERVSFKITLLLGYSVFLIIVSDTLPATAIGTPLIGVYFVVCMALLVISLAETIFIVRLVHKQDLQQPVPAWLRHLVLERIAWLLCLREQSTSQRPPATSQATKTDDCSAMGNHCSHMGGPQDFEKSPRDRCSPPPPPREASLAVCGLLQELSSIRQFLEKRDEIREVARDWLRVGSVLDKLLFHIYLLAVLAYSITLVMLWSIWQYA
- Test details: [3H]BRL 43694 competition binding assay (Cerep)
- Test parameters: CHO cell membranes expressing human 5-HT3 receptors, [3H]BRL 43694, 120 min at room temperature; read-out: h-5HT3 Ki
Counter-ions that a name gives are not always drawn.
I'd be grateful if you could share measured Ki for these entries.

Look over these answered cases.
>>> df
                                   compound  measured_property  measurement
0  Cc1cc2onc(N[C@@H]3C4CCN(CC4)C3(C)C)c2cc1F [Compound (R)-9, hydrochloride]                 Ki      > 10 µM
1  CC1(C)[C@H](Nc2noc3cc(Cl)c(F)cc23)C2CCN1CC2 [Compound (R)-11, hydrochloride]                 Ki      > 10 µM

Now consider the entry below.
Could you share which Ki value was measured for COc1ccc2c(N[C@@H]3C4CCN(CC4)C34CC4)noc2c1 [Compound (R)-18, hydrochloride] ?
> 10 µM
